Values were extracted from PubChem BioAssay (NCI).

# Test system: BT-549 breast
# procedure text: NCI tumour cell line growth inhibition, 48 h; in the data active = GI50 below about 0.43 µM; inactive = the rest
Respond with a class label; see t = active, f = inactive

Query: recorded result category for "CCCCC(=O)N/N=C/c1cc(I)cc(I)c1O" in this test
f

Query: recorded result category for "COc1ccc(O)c(C(=O)c2ccc(C(=O)O[C@@H]3CCCNC[C@H]3NC(=O)c3ccncc3)cc2)c1F" in this test
t

Query: recorded result category for "CCOC(=O)CC1(O)C=CC(=O)C=C1" in this test
f

Query: recorded result category for "CC(C)=CCc1c(O)cc(/C=C/c2cc(O)c3c(c2)C[C@@H]2C(C)(C)[C@H](O)[C@H](O)C[C@@]2(C)O3)cc1O" in this test
t

Query: recorded result category for "COc1ccc(-c2n[nH]nc2-c2csc3ccccc23)cc1OC" in this test
f
